FYI, the data here is from patent US20250179032A1.

# IC50 per record follows
Assay target: H. sapiens SLC2A9 variant 2 (GLUT9B) (Homo sapiens, UniProt Q9NRM0)
Sequence (Q9NRM0 1-511 isoform Q9NRM0-2): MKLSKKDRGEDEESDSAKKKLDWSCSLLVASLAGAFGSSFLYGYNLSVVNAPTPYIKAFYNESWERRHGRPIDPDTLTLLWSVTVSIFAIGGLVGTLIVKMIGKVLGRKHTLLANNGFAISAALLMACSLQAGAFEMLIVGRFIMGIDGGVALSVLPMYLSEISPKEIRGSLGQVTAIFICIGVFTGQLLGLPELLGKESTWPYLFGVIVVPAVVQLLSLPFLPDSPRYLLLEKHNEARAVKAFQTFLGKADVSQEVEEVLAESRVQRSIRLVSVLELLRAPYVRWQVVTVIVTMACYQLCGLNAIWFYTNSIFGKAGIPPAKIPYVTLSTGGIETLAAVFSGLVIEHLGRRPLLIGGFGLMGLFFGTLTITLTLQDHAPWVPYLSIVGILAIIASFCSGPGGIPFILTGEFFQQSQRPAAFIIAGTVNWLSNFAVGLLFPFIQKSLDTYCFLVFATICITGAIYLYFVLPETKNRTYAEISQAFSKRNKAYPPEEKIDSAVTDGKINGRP
Assay text: GLUT9 functional assay: uric acid uptake in HEK293T cells, allantoin formation by MS/MS as proxy of GLUT9B inhibition
Format: cell-based
Assay setup: 60 minute assay; HEK293T cells stably expressing GLUT9B and transiently A. oryzae uricase; uric acid 0.3 mM, 37° C.; read-out: 60 min IC50

These solved cases illustrate the format of a correct answer.
COCCCc1cnc(-c2cc(F)c3occc3c2)c(N2CCC(C(=O)O)C3CC32)n1 (centres unmarked) ... < 0.5 µM
COCCCc1cnc(-c2ccc3sccc3c2)c(N2CCC(C(=O)O)CC2)n1 ... < 0.5 µM
COCCCc1cnc(-c2cnc3nn(C)cc3c2)c(N2CCC(C(=O)O)CC2)n1 ... > 2 µM

// query IC50 value for entry COCCCc1cnc(-c2cc3sccc3s2)c(N2CCC(C(=O)O)CC2)n1 > 2 µM

What does the data say about its IC50? Entry: COCCCc1cnc(-c2cc(F)c3occc3c2)c(N2CCC(O)(C(=O)O)CC2)n1 0.5 to 2 µM

What does the data say about its IC50? Entry: COCCCc1cnc(-c2cnn3c2OCCC3)c(N2CCC(C(=O)O)CC2)n1 > 2 µM

Entry COCCCc1cnc(-c2cc(F)c3c(c2)OCO3)c(N2CCCC(C(=O)O)CC2)n1 (centres unmarked) has what IC50? < 0.5 µM

Requested field: IC50. Item: COCCCc1cnc(-c2cc(F)c3occc3c2)c(N2CC[C@H](C(=O)O)C[C@@H]2C)n1 (single isomer, unassigned) < 0.5 µM

Requested field: IC50. Item: COCCCCc1cnc(-c2ccc3occc3c2)c(N2CCC(C(=O)O)CC2)n1 < 0.5 µM

# lookup: IC50 of COCCCc1cnc(-c2ccnn2CCC(C)C)c(N2CCC(C(=O)O)CC2)n1 > 2 µM

GET /values?readout=IC50&item= COCCCc1cnc(-c2cc(F)c3c(c2)CCO3)c(N2CCC(C)(C(=O)O)CC2)n1 < 0.5 µM

Entry COCCCc1cnc(-c2ccn3ccnc3c2)c(N2CCC(C(=O)O)CC2)n1 has what IC50? > 2 µM

Quick one: IC50 of COCCCc1cnc(-c2cc(F)c3c(c2)OCO3)c(N2CCC(C(=O)O)CC2)n1 ? < 0.5 µM

Would you kindly share the measured IC50 for O=C(O)C1CCN(c2nc(CCCOC(F)(F)F)cnc2-c2cc(F)c3occc3c2)CC1 ? < 0.5 µM

====

Assay target: H. sapiens SLC2A9 variant 2 (GLUT9B) (Homo sapiens, UniProt Q9NRM0)
Assay text: GLUT9 functional assay: uric acid uptake in HEK293T cells, allantoin formation by MS/MS as proxy of GLUT9B inhibition
Assay type: cell-based
Assay setup: 60 minute assay; HEK293T cells stably expressing GLUT9B and transiently A. oryzae uricase; uric acid 0.3 mM, 37° C.; read-out: 60 min IC50
pIC50: −log10 of the molar value.
# key: entry, value: pIC50

What value of pIC50 has been reported for the following compound? COCCCc1cnc(-c2ccnc3cc(F)c(OC)cc23)c(N2CCC(C(=O)O)CC2)n1 < 5.70

Can you share its pIC50? I mean this compound: COCCCc1cnc(-c2cnc3nccn3c2)c(N2CCC(C(=O)O)CC2)n1 < 5.70

What does the data say about its pIC50? Entry: COCCCc1cnc(-c2ccc3occc3c2)c(NC23CC(C(=O)O)(C2)C3)n1 < 5.70

I'd like to know its pIC50. The compound in question is COCCCc1cnc(-c2cnc3sccc3c2)c(N2CCC(C(=O)O)CC2)n1 5.70 to 6.30

Item COCCCCc1cnc(-c2cc(F)c3occc3c2)c(N2CCC(C(=O)O)CC2)n1 has what recorded pIC50? > 6.30

Which pIC50 value belongs to CCCCc1cnc(-c2ccc(OC)cc2)c(N2CCC(C(=O)O)CC2)n1 ? > 6.30

Which pIC50 is listed for COCCCc1cnc(-c2ccc(F)c(F)c2)c(N2CCC(C(=O)O)CC2)n1 ? 5.70 to 6.30

Given the compound COCCCc1cnc(-c2ccc3c(c2)OCO3)c(N2CC3(CC(C(=O)O)CO3)C2)c1 (centres unmarked) , what is its reported pIC50? < 5.70

====

pIC50 values by entry
Assay target: H. sapiens SLC2A9 variant 2 (GLUT9B) (Homo sapiens)
Assay text: GLUT9 functional assay: uric acid uptake in HEK293T cells, allantoin formation by MS/MS as proxy of GLUT9B inhibition
Format: cell-based
Assay setup: 15 minute assay; HEK293T cells stably expressing GLUT9B and transiently A. oryzae uricase; uric acid 0.3 mM, 37° C.; read-out: 15 min IC50
pIC50: −log10 of the molar value.

CCCCc1cnc(-c2ccc(OC)cc2)c(N2CCC(CCC(=O)O)CC2)n1 ... > 6.30
CCCCc1cnc(-c2ccc3[nH]ccc3c2)c(N2CCC(C(=O)O)CC2)n1 ... < 5.70
CCCCc1cnc(-c2ccc(OC)cc2)c(-c2cn(CC(=O)O)nn2)c1 ... > 6.30
O=C(O)C1CCN(c2nc(CCC(F)(F)F)cnc2-c2ccc(OCC3CC3)cc2)CC1 ... > 6.30
O=C(O)C1CCN(c2nc(COCC(F)(F)F)cnc2-c2cnc3occc3c2)CC1 ... < 5.70
COCCOc1ccc(-c2ncc(CCCC(F)F)nc2N2CCC(C(=O)O)CC2)cc1 ... > 6.30
O=C(O)C1CCN(c2nc(CCCC(F)(F)F)cnc2-c2ccc3c(c2)NCCO3)CC1 ... 5.70 to 6.30

--- query ---
What does the data say about its pIC50? Entry: CCCCc1cnc(-c2ccc(OC)cc2)c(N2CCC(S(C)(=O)=O)CC2)n1 < 5.70

====

// reported IC50 for each item listed
Assay target: H. sapiens SLC2A9 variant 2 (GLUT9B) (Homo sapiens, UniProt Q9NRM0)
Sequence (Q9NRM0 1-511 isoform Q9NRM0-2): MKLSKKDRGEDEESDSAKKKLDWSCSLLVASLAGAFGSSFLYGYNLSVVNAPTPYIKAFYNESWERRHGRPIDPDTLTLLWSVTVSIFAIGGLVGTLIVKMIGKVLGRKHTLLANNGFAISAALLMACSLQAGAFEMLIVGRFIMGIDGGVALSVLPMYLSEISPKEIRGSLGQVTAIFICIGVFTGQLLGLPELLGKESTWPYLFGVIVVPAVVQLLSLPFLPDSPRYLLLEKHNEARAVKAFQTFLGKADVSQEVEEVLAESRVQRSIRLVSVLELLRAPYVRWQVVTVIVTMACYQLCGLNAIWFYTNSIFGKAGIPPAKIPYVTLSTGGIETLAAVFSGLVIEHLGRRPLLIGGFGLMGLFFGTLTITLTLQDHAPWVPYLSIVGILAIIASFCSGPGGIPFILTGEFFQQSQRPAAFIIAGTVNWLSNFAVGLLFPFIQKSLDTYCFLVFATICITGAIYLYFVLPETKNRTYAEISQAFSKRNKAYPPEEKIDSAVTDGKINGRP
Assay text: GLUT9 functional assay: uric acid uptake in HEK293T cells, allantoin formation by MS/MS as proxy of GLUT9B inhibition
Format: cell-based
Assay setup: 60 minute assay; HEK293T cells stably expressing GLUT9B and transiently A. oryzae uricase; uric acid 0.3 mM, 37° C.; read-out: 60 min IC50

COCCCc1cnc(-c2ccc3occc3n2)c(N2CCC(C(=O)O)CC2)n1 [Compound 241] ... > 2000 nM
COCCCc1cnc(-c2ccc3occc3c2)c(N2CC(C(=O)O)C2)n1 [Compound 175] ... > 2000 nM
COCCCc1cnc(-c2ccc3c(c2)COC3=O)c(N2CCC(C(=O)O)CC2)c1 [Compound 232] ... < 500 nM

Query compound follows.
Query (compound): COCCCc1cnc(-c2ccc3c(c2)CCCS3(=O)=O)c(N2CCC(C(=O)O)CC2)n1 [Compound 234] ; field requested: IC50 > 2000 nM
